measured.on: Estrogen receptor (Homo sapiens, UniProt Q92731+P03372)
test.conditions: mcf-7
Description: In vitro inhibition of estrogen-stimulated MCF-7 cell proliferation
Labelling field: enter true (1) if recorded IC50 is less than 10 nM. Enter false (0) if it equals or exceeds that cut-off.

smiles.structure	qualitative.label
O=C(c1ccc(SCCN2CCCCC2)cc1)c1c(-c2ccc(O)cc2)sc2cc(O)ccc12	true (1)
COc1ccc(-c2sc3cc(OC)ccc3c2C(=O)c2ccc(S(=O)(=O)CCN3CCCCC3)cc2)cc1	false (0)
COc1ccc(-c2sc3cc(OC)ccc3c2C(=O)c2ccc(CCCN3CCCCC3)cc2)cc1	false (0)
O=C(c1ccc(NCCN2CCCCC2)cc1)c1c(-c2ccc(O)cc2)sc2cc(O)ccc12	true (1)
O=C(c1ccc(S(=O)(=O)CCN2CCCCC2)cc1)c1c(-c2ccc(O)cc2)sc2cc(O)ccc12	false (0)
